System: PAX3-FOXO1 fusion transcription factor
EXPERIMENT DESCRIPTION: RH4 ALK-Luc luciferase reporter assay (PAX3-FOXO1 super enhancer activity)
Assay type: cell-based, human
TEST CONDITIONS: RH4 ALK-Luc reporter; 10 μM
Each entry gets not met if its Avg Absorbance @ 10 μM, ALK-Luc stays under 90, and met if its Avg Absorbance @ 10 μM, ALK-Luc is 90 or above.

In: Hi, just wondering whether `O=C(NNC(=O)c1ccccn1)c1ccccc1` shows Avg Absorbance @ 10 μM, ALK-Luc of 90 or higher.
Out: met

In: Hi, just wondering whether `NNC(=O)c1ccc(C(=O)NN)nc1` shows Avg Absorbance @ 10 μM, ALK-Luc of 90 or higher.
Out: met

In: Hi, just wondering whether `NNC(=O)c1ccc(C(=O)NN)o1` shows Avg Absorbance @ 10 μM, ALK-Luc of 90 or higher.
Out: met

In: Hi, just wondering whether `Cc1cc(C)cc(C(=O)NNC(=O)c2ccc(O)cc2)c1` shows Avg Absorbance @ 10 μM, ALK-Luc of 90 or higher.
Out: not met
